# runDescription: protein stability index of a GFP-peptide fusion (yeast GPS) (PSI 1-4); higher = more stable; sorted into four equal gates, so the index is relative within each strain
# testConditions: san1∆
Response key: true means protein stability index >= 3; false means protein stability index < 3.

Say whether IDIINKLILHAIHIFES [YML103C/NUP188] shows protein stability index of 3 or more.
false

Say whether KERSIVVGRTTRSNPPF [REC8] shows protein stability index of 3 or more.
false

Say whether MRAKWRKKRTRRLKRKR [RPL41A] shows protein stability index of 3 or more.
true

Say whether MEDPPSTVSGELNDNPA [YMR153W/NUP53] shows protein stability index of 3 or more.
false

Say whether ITKEVTQVNILKENNAI [YIL149C/MLP2] shows protein stability index of 3 or more.
false

Say whether LGKAQNWAKFTATASLG [RPN2] shows protein stability index of 3 or more.
false

Say whether QARIILNHILEKSTQLQ [YGR119C/NUP57] shows protein stability index of 3 or more.
false

Say whether NRPDNKNAQYHLLVKQG [RPN7] shows protein stability index of 3 or more.
false

Say whether QGPRSYFLDVKCPGCLN [RPS27A] shows protein stability index of 3 or more.
true

Say whether IDRNLKCQTCQEGMNEC [RPO21] shows protein stability index of 3 or more.
false

Say whether GSYNAFEPASRLQGIKL [COR1] shows protein stability index of 3 or more.
true

Say whether IKGQCLATLLGHNDWVS [ASC1] shows protein stability index of 3 or more.
false

Say whether RFKSQFLYVLIPAGIYW [QCR8] shows protein stability index of 3 or more.
false

Say whether ASKGIDRLSLQDRQQLL [ECM29] shows protein stability index of 3 or more.
true

Say whether PEDAQLLLAANTHLGAR [RPS0A] shows protein stability index of 3 or more.
false

Say whether KVIEQPITSETAMKKVE [RPL25] shows protein stability index of 3 or more.
false

Say whether SEPLTLKVLSEHLDCMN [PCI8] shows protein stability index of 3 or more.
false

Say whether KIVEIDRHIGCAMSGLT [PUP2] shows protein stability index of 3 or more.
false

Say whether SQLQPQPQPQPQQQQQH [YDL088C/ASM4] shows protein stability index of 3 or more.
false

Say whether DSVILASSKAVTRGISV [PRE1] shows protein stability index of 3 or more.
false

Say whether IKEENDMENMADEQKRS [ARP7] shows protein stability index of 3 or more.
true

Say whether SSSDFRLHYYPKDPSNV [BRR2] shows protein stability index of 3 or more.
true

Say whether QLNSRAVAVVVDPIQSV [RPN11] shows protein stability index of 3 or more.
false

Say whether NSNQQQNPKLFQTIFSK [SIN4] shows protein stability index of 3 or more.
true

Say whether QIPVYDTFDGSDLRVLS [FAS1] shows protein stability index of 3 or more.
false

Say whether PRSDAQAIKEASYVNIP [RPS0A] shows protein stability index of 3 or more.
false

Say whether ITDKTIKAFMDSTIGNS [IRR1] shows protein stability index of 3 or more.
true

Say whether YEGMKLGNHAITIDSVV [YMR129W/POM152] shows protein stability index of 3 or more.
false

Say whether IEEEIFDDSSRIVNHKT [LIN1] shows protein stability index of 3 or more.
true

Say whether DEATVPNTRDAESEAIT [SWI3] shows protein stability index of 3 or more.
true

Say whether KQNPGLMQNMMNMFGGG [SRP54] shows protein stability index of 3 or more.
false

Say whether MELLTQMDGFDNLGQTK [RPT4] shows protein stability index of 3 or more.
true

Say whether SVEAYLVSLFEDTNLAA [HHT1] shows protein stability index of 3 or more.
false

---

# runDescription: protein stability index of a GFP-peptide fusion (yeast GPS) (PSI 1-4); higher = more stable; sorted into four equal gates, so the index is relative within each strain
# testConditions: pdr5∆
propertyMeasured: protein stability index

Would you kindly share the measured protein stability index for PIKNRKNDTHYLLPDDF [BRN1] ?
2.93

Would you kindly share the measured protein stability index for TIKDLVGGKSTVQNEIL [FAS2] ?
2.92

Would you kindly share the measured protein stability index for YQLYTSNPSGNYTGWKA [PRE9] ?
3.08

Would you kindly share the measured protein stability index for VKQEDMPFNDQGIVPDI [RET1] ?
3.06

Would you kindly share the measured protein stability index for ESDSKATLQSNEPTQKD [DSN1] ?
2.94

Would you kindly share the measured protein stability index for RDLSEASVYPEYALPKT [RPS26A] ?
3.01

Would you kindly share the measured protein stability index for AFSFGAKSNEDKQDGTA [YJL041W/NSP1] ?
2.98

Would you kindly share the measured protein stability index for AAIHAKRVTIQKKDIKL [HHT1] ?
3.04

Would you kindly share the measured protein stability index for EVIFTDVLKSQANTEPE [MCD1] ?
3.08

---

For each of the sequences below, state its protein stability index.
# runDescription: protein stability index of a GFP-peptide fusion (yeast GPS) (PSI 1-4); higher = more stable; sorted into four equal gates, so the index is relative within each strain
# testConditions: pdr5∆
Lab note: jot down the number only; don't add units.

Would you kindly share the measured protein stability index for KVEYKIVHDDPASDDIL [ITC1] ?
3.09

Would you kindly share the measured protein stability index for REKRDRTHFKRMRFPPF [PRP8] ?
2.64

Would you kindly share the measured protein stability index for SCTFWSDKESNAYGFIE [YJL039C/NUP192] ?
2.65

Would you kindly share the measured protein stability index for LKTNGKQNNKDFRTRYI [MTW1] ?
2.84

Would you kindly share the measured protein stability index for FDPSRIKDLKQREDKLK [SMC2] ?
2.88

Would you kindly share the measured protein stability index for PQSAPNQMGMGTNNGMS [YOR098C/NUP1] ?
3.14

Would you kindly share the measured protein stability index for ATPFRQWFEAHYGQTLG [RPS8A] ?
2.79

Would you kindly share the measured protein stability index for YSPNTLGHPDNYIPGNP [COB] ?
2.27

Would you kindly share the measured protein stability index for LLPFVKGNVGFVFTNEP [RPP0] ?
1.77

---

# runDescription: protein stability index of a GFP-peptide fusion (yeast GPS) (PSI 1-4); higher = more stable; sorted into four equal gates, so the index is relative within each strain
# testConditions: pdr5∆
For each of the sequences below, state its protein stability index.

Would you kindly share the measured protein stability index for SNSVFSPDGRNFQVEYA [PRE10] ?
2.91

Would you kindly share the measured protein stability index for NTGDGSISTYKDILNLA [ECM29] ?
2.97

Would you kindly share the measured protein stability index for KYHNDLIEKEIQPKITE [SMC1] ?
3.05

Would you kindly share the measured protein stability index for IYDKKDHKYVCTFSMEP [SRB8] ?
2.99

Would you kindly share the measured protein stability index for EQNSSSAKPSQIPTVSS [SIR4] ?
2.97

Would you kindly share the measured protein stability index for KKAVKELYEVDVLKVNT [RPL25] ?
3.09

Would you kindly share the measured protein stability index for RSCVSNSNENGTLERIK [RPN4] ?
3.07

Would you kindly share the measured protein stability index for TKLDQVWGSETVASSKV [RPL4A] ?
3

---

# runDescription: protein stability index of a GFP-peptide fusion (yeast GPS) (PSI 1-4); higher = more stable; sorted into four equal gates, so the index is relative within each strain
# testConditions: ubr1∆
propertyMeasured: protein stability index
Lab note: jot down the number only; don't add units.

Would you kindly share the measured protein stability index for VSIVKLDTQLITLLPSS [SNF12] ?
1.97

Would you kindly share the measured protein stability index for TEKLSNGFSFTKFNHNK [YOR098C/NUP1] ?
2.94

Would you kindly share the measured protein stability index for DGMDAAHIEKQSLDTIG [RPO21] ?
3.05

Would you kindly share the measured protein stability index for DDLKQKKEELVEIAYHK [RPO31] ?
3.08

Would you kindly share the measured protein stability index for TPLQSQLNLNNLTPANI [PGD1] ?
3.01

Would you kindly share the measured protein stability index for RQSSVGSLNATNFSPTP [SNF2] ?
2.96

Would you kindly share the measured protein stability index for NSNTNLNSLSPQAILAK [SWI1] ?
2.02

---

For each of the sequences below, state its protein stability index.
# runDescription: protein stability index of a GFP-peptide fusion (yeast GPS) (PSI 1-4); higher = more stable; sorted into four equal gates, so the index is relative within each strain
# testConditions: san1∆
Lab note: jot down the number only; don't add units.

Would you kindly share the measured protein stability index for TKIKDAEEDSLLSGEDL [YJL039C/NUP192] ?
3.14

Would you kindly share the measured protein stability index for RSLVREIAGLSPYERRL [RPL36A] ?
2.78

Would you kindly share the measured protein stability index for GILDEIMFNHARIIRSE [RGR1] ?
3.08

Would you kindly share the measured protein stability index for LFLRGDSVIVVLKTPVE [SMD2] ?
2.78

Would you kindly share the measured protein stability index for LIPFIVKQVLLSVEIGV [NUT1] ?
1.56

Would you kindly share the measured protein stability index for DTLKLRENLHILNEVFT [RRP6] ?
2.59

Would you kindly share the measured protein stability index for DLSYIEFLFESLKNDLP [ECM29] ?
2.78

Would you kindly share the measured protein stability index for CNQMENLLESITKLLEI [YCS4] ?
2.9

Would you kindly share the measured protein stability index for DDLKQKKEELVEIAYHK [RPO31] ?
3.08

Would you kindly share the measured protein stability index for STSGDPSEFHCLQDALD [SSN2] ?
3.08

Would you kindly share the measured protein stability index for IIFASTKLGFTFTIKEF [SNU114] ?
1.83

Would you kindly share the measured protein stability index for QKSVSLLSSESNIPTLI [YDL116W/NUP84] ?
2.8

Would you kindly share the measured protein stability index for STVSANHSNNDIPTIAD [BRN1] ?
3.02

Would you kindly share the measured protein stability index for RSKSSHKNERRVLEIQT [SKI6] ?
3.23

Would you kindly share the measured protein stability index for TIEKDKMKIQETISKLN [SMC2] ?
1.94

Would you kindly share the measured protein stability index for NEMLLKRVTKVKRLLFT [MTW1] ?
1.21

Would you kindly share the measured protein stability index for KLPLSVINVSAQRDRRY [RPS17A] ?
1.43

Would you kindly share the measured protein stability index for KNEEAEIEVDEMEVDAE [RPN1] ?
3.19

Would you kindly share the measured protein stability index for MKVEVDSFSGAKIYPGR [RPL24B] ?
2.52

Would you kindly share the measured protein stability index for IVRDLDRPGSKFHKREV [RPL3] ?
2.92

Would you kindly share the measured protein stability index for LFSSRRLQAKRLKDVEW [RMP1] ?
3.1

Would you kindly share the measured protein stability index for TLDDLVTKWTNQLTESA [YJL041W/NSP1] ?
2.85

The measurements presented in this section are drawn from the supplement of paper PMC9732359.
